Data origin: a melting point compilation (Tetko et al.)

Parameter: melting point

Which melting point value is on record for Cc1ccc(CN(C)C)cc1N ?
66 to 68 °C

Try the compound Cc1cc(C(=O)CCl)c(C)n1-c1cccc(Br)c1
102 to 104 °C

Try the compound O=S(=O)(Cl)c1cc2c(cc1Br)OCCCO2
105 to 107 °C

Try the compound NC(=O)N1CCC(N)CC1
64 to 66 °C

Try the compound O=C(O)CNC(=O)/C=C/c1ccccc1
191 to 193 °C

Try the compound Nc1cccc(-c2ccc3c(c2)OCCO3)n1
117 to 119 °C

Try the compound COC(=O)COc1ccc(O)cc1
113 to 115 °C

Try the compound CNS(=O)(=O)c1ccc(Sc2ccccc2C(=O)O)cc1
199 to 201 °C

Try the compound O=C(O)c1cc(/C=C/c2cccc(Br)c2)nc2ccc(Br)cc12
307 to 309 °C

Try the compound CC(C)(C)OC(=O)NCC1CNc2ccccc21 (stereo not drawn)
80 to 82 °C

Try the compound Clc1nnc(-c2ccccc2)s1
82 to 84 °C

Try the compound NCc1nnn[nH]1
269 to 271 °C

Try the compound Nc1nc(Sc2ccccc2)ns1
154 to 156 °C

Try the compound CC1CCCCC1NC(=O)CCl (stereo not drawn)
100 to 102 °C

Try the compound Cc1cc(=O)[nH]c(-c2ccncc2)n1
241 to 243 °C

Try the compound O=C(O)C=Cc1ccccc1OC(F)F
164 to 166 °C

Try the compound BrCCC12CC3CC(CC(C3)C1)C2
56 to 58 °C

Try the compound Cc1cccc(S(=O)(=O)Cl)c1Br
56 to 58 °C

Try the compound O=C(O)C(CO)NS(=O)(=O)c1ccc(Cl)cc1 (stereo not drawn)
206 to 208 °C

Try the compound CC(=O)c1c[nH]c(C(=O)C(Cl)(Cl)Cl)c1
190 to 192 °C

Try the compound CCC(C)n1nc(N)cc1C (stereo not drawn)
54 to 56 °C

Try the compound O=C(O)C1CCN(S(=O)(=O)c2cc([N+](=O)[O-])ccc2Cl)CC1
42 to 44 °C

Try the compound COc1cccc(C(=O)CC#N)c1
84 to 86 °C

Try the compound CC(C)CC(CCC(=O)O)C(=O)O (stereo not drawn)
66 to 68 °C

Try the compound Clc1nnc(-c2ccccc2)c2ccccc12
156 to 158 °C

Try the compound CC(N)C(=O)Nc1ccc(-n2cncn2)cc1 (stereo not drawn)
169 to 171 °C

Try the compound Cc1cc(-c2csc(N)n2)c(C)o1
89 to 91 °C

Try the compound CC(C)NS(=O)(=O)Cc1ccc(C#N)cc1
158 to 160 °C
